System: BT-549
Assay: NCI tumour cell line growth inhibition, 48 h
Activity calls are given as the source filed them. Rule as the data show it: active = GI50 up to about 1.1 µM and inactive = higher.
Entries annotated with measured GI50

Example compounds with recorded GI50:
{"Compound": "CCCCc1cc2c(C)cc(=O)oc2c(O)c1O", "System": "BT-549", "Observed Result": "14.6 µM (inactive)"}
{"Compound": "C/C(=N\\NS(=O)(=O)c1ccc(C)cc1)P(=O)(O)O", "System": "BT-549", "Observed Result": "> 100 µM (inactive)"}
{"Compound": "CC(C)(C)NC(=O)CCC1C(C(=O)NC(C)(C)C)C2(Cl)C(Cl)=C(Cl)C1(Cl)C2(Cl)Cl (configuration not stated)", "System": "BT-549", "Observed Result": "> 100 µM (inactive)"}

Exercise: Form field: reported GI50 of `Clc1ccc(-c2nc(-c3ccc(Cl)cc3)[s+]s2)cc1`
Key: 72.9 µM (inactive)

Exercise: Then this compound: C=C1CC(COc2ccc3c(C)c(Cl)c(=O)oc3c2)(c2ccccc2)OC1=O (configuration not stated)
Key: 1.53 µM (inactive)

The reported numbers originate from ChEMBL document CHEMBL1201862.
